system: Mycobacterium tuberculosis; experiment: Antitubercular activity against Mycobacterium tuberculosis H37Rv assessed as growth inhibition after 21 days by micro-broth dilution method; format: functional; conditions: 504 h
This section presents compounds with their documented MIC values.
The response must be a number in µM with no trailing unit.

Would you please look over these solved cases?
chem_smiles	property_label	unit_descriptor	observed_result
COc1cc(Cn2cc(C(=O)C(=O)c3ccccc3OC)nn2)cc(OC)c1	MIC	µM	21
NNC(=O)c1ccncc1	MIC	µM	0.4

Query string: # query: MIC of entry O=C(C(=O)c1ccc(Cl)cc1Cl)c1cn(CCc2ccccc2)nn1
Result string: 13.4

Query string: Likewise for CCCCCCCCn1cc(C(=O)Cc2ccc(Cl)cc2Cl)nn1 ?
Result string: 20.9

Query string: Likewise for Cc1cc(C)cc(Cn2cc(C(=O)C(=O)c3ccccc3)nn2)c1 ?
Result string: 50

----------
tested on: Mycobacterium tuberculosis; experiment: Antitubercular activity against Mycobacterium tuberculosis H37Rv assessed as growth inhibition after 21 days by micro-broth dilution method; format: functional; details: 504 h
Friendly reminder: MIC below 40 µM is TRUE, at or above is FALSE.

Reference set, count: 3
chem_smiles	class
O=C(Cc1ccc(Cl)cc1Cl)c1cn(CCc2ccccc2)nn1	FALSE
COc1ccc(C(=O)C(=O)c2cn(CCc3ccccc3)nn2)cc1	FALSE
COc1ccc(CCn2cc(C(=O)Cc3ccc(OC)cc3)nn2)cc1	FALSE

Query string: Consider the compound COc1ccc(CCn2cc(C(=O)C(=O)c3ccc(OC)cc3)nn2)cc1 . Is its MIC strictly less than 40 µM?
Result string: FALSE

Query string: Likewise for O=C(C(=O)c1cn(Cc2ccc([N+](=O)[O-])cc2)nn1)c1ccccc1 ?
Result string: TRUE

Query string: Likewise for O=C(C(=O)c1ccc(Cl)cc1Cl)c1cn(Cc2ccccc2)nn1 ?
Result string: TRUE

Query string: Likewise for O=C(C(=O)c1cn(Cc2ccccc2)nn1)c1ccccc1 ?
Result string: FALSE

Query string: Likewise for O=C(C(=O)c1cn(Cc2ccccc2)nn1)c1ccc([N+](=O)[O-])cc1 ?
Result string: FALSE

Query string: Likewise for COc1ccc(CC(=O)c2cn(CCc3ccccc3)nn2)cc1 ?
Result string: FALSE

Query string: Likewise for COc1cc(Cn2cc(C(=O)C(=O)c3ccc([N+](=O)[O-])cc3)nn2)cc(OC)c1 ?
Result string: FALSE

Query string: Likewise for COc1ccccc1C(=O)C(=O)c1cn(Cc2ccccc2)nn1 ?
Result string: TRUE
